Source listed as patent EP1321467A2.

biological target: I338G v-Src (Rous sarcoma virus subgroup A, UniProt P00524, DEL77-225/I338G); construct: catalytic domain of the target kinase, I338G v-Src, which was expressed in bacteria and purified as a glutathione-S-transferase (GST) fusion protein; made in house; host or cells: E. coli DH5a, pGEX-KT; assay: biochemical; format: biochemical; settings: Table 3; read-out: 1338G v-Src
Recorded IC50 values for a group of compounds are listed next.
State just the number; it will be interpreted in nM.

Reference set (3 entries):
[[record]]
compound = "CC(C)(C)n1nc(-c2cccc(OCc3c(Cl)cccc3Cl)c2)c2c(N)ncnc21 [Compound 6e]"
recorded_result = 130

[[record]]
compound = "CC(C)(C)c1ccc(-c2nn(C(C)(C)C)c3ncnc(N)c23)cc1 [Compound 6g]"
recorded_result = 99

[[record]]
compound = "CC(C)(C)n1nc(COc2cccc3ccccc23)c2c(N)ncnc21 [Compound 6i]"
recorded_result = 45


Kindly review the next compound as well.
Looking for the measured IC50 of CC(C)(C)n1nc(Cc2ccc3ccccc3c2)c2c(N)ncnc21 [Compound 6j] , can you help?
20

###

Biological target: Cdc28-as1·MBP-C1b2 (Saccharomyces cerevisiae, UniProt P00546, F88G)
Sequence (P00546 whole entry F88G): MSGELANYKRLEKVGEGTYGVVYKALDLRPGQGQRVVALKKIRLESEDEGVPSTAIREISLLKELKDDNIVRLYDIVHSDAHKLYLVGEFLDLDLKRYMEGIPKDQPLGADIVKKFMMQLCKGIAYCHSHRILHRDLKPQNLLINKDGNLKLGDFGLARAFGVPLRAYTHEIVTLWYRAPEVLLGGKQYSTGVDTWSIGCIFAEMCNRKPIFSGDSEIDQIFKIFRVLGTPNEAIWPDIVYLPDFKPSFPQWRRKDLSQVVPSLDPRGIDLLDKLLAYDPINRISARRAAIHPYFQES
Sequence (P24869 whole entry, further chain): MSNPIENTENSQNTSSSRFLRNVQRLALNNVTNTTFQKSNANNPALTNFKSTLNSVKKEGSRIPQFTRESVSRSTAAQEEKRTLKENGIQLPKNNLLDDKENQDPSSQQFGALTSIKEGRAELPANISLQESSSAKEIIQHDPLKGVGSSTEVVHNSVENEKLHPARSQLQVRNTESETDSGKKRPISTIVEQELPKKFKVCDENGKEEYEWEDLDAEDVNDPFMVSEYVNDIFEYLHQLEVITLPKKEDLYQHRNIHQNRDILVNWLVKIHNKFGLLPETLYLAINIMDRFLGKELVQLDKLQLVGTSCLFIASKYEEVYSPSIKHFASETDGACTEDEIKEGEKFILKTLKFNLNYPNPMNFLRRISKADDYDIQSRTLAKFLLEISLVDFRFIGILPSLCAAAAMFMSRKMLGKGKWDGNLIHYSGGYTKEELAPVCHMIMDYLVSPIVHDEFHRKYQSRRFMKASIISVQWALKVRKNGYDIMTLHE
Experiment: 1-NM-PP1 IC50, Histone H1 phosphorylation
Assay type: biochemical
Parameters: His6 (C); made in house; host or cells: Sf9 insect cells, baculovirus, co-infected with Cak1-HA3 (Cdc28-as1-His6); bacteria (MBP-Clb2)
Conditions: IC50, 1 mM ATP, text b306
Protocol: Purification of Cdc28-His6, Cdc28-as1-His6, MBP-Clb2: Lysate was prepared from insect cells co-infected with baculoviruses encoding Cdc28-His6 or Cdc28-as1-His6 and Cak1-HA3 (151). Cdc28-His6 and Cdc28-as1-His6 were purified by metal affinity chromatography as described (152), followed by anion-exchange (Pharmacia SP Sepharose Fast Flow) and cation-exchange (Pharmacia Q Sepharose Fast Flow). […] Phosphate incorporation was determined at each inhibitor concentration by scintillation counting.
pIC50: −log10 of the molar value.
Observation Type: pIC50

Observed pIC50 on Cdc28-as1·MBP-C1b2 (Saccharomyces cerevisiae, UniProt P00546, F88G) for CC(C)(C)n1nc(Cc2cccc3ccccc23)c2c(N)ncnc21 , please.
~8.52

###

biological target: Cdc28·MBP-C1b2 (Saccharomyces cerevisiae); construct: His6 (C); made in house; host or cells: Sf9 insect cells, baculovirus, co-infected with Cak1-HA3 (Cdc28-His6); bacteria (MBP-Clb2); test: 1-NM-PP1 IC50, Histone H1 phosphorylation; assay type: biochemical; settings: 1-NM-PP1 IC50 @ 10 µM ATP, 10 µM ATP
Sequence (P00546 whole entry): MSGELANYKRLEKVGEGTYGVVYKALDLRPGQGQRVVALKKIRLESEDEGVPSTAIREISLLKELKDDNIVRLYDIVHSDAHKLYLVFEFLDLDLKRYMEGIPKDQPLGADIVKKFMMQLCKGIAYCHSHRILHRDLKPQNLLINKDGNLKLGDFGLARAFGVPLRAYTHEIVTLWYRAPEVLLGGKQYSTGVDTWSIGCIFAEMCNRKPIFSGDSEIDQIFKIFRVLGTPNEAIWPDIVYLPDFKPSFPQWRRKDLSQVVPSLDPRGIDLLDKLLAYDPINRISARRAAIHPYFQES
Sequence (P24869 whole entry partner): as the sequence (P24869 whole entry, further chain) above
Observation Type: IC50 (µM)
State just the number; it will be interpreted in µM.

Looking for the measured IC50 of CC(C)(C)n1nc(Cc2cccc3ccccc23)c2c(N)ncnc21 [Compound 6h] , can you help?
22

###

molecular target: F89G CAMK IIα (Homo sapiens, UniProt Q9UQM7, F89G); assay: In vitro inhibition of phosphorylation of an exogenous substrate, kinase panel
Sequence (Q9UQM7 whole entry F89G): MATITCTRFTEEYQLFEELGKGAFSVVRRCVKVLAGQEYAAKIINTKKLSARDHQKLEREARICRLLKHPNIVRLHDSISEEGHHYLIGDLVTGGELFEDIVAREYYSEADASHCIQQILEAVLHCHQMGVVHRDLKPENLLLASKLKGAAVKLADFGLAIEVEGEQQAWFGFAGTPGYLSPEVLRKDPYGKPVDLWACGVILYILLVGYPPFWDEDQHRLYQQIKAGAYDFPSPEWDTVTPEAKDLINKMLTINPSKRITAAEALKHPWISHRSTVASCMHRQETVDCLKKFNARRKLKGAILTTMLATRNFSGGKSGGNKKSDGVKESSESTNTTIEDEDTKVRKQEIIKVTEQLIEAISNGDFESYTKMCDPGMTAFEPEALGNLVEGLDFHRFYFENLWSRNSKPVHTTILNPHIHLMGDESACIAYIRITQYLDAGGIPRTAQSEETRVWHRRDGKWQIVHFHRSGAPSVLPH
Observation Type: IC50 (nM)
State just the number; it will be interpreted in nM.

Looking for the measured IC50 of CC(C)(C)n1nc(Cc2cccc3ccccc23)c2c(N)ncnc21 , can you help?
8
